Molecular target: 4-aminobutyrate aminotransferase, mitochondrial (Rattus norvegicus) (UniProt P50554)
Sequence (P50554 28-500 limits assumed): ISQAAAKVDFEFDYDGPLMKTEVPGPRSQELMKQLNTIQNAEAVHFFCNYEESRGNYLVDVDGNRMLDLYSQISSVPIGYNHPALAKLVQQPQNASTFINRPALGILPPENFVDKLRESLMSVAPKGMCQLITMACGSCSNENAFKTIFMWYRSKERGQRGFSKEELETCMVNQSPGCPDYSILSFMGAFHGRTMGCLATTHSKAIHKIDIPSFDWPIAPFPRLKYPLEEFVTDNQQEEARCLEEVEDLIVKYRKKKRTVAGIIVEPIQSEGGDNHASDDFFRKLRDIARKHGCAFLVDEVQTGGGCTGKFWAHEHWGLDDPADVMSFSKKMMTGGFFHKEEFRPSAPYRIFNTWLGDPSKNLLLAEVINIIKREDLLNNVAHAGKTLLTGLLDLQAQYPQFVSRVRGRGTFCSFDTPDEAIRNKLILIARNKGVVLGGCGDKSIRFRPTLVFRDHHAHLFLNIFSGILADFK
Test: In vitro inhibition of succinate formation in the synaptosomal Gamma-amino-N-butyrate transaminase assay at 100 uM
Format: functional
inhibition by entry:
// return numeric value only (unit: %, not printed)

Req: So what's the measured inhibition for this one? NC(=O)C(=O)O
Resp: 60

Req: What about CC1=NS(=O)(=O)c2c(CN)cccc2N1 ?
Resp: 30

Req: What about CC1=NS(=O)(=O)c2ccc(CN(C)C)cc2N1 ?
Resp: 30

Next:
Req: So what's the measured inhibition for this one? CN(C)Cc1ccc2c(c1)NC(=O)N(C)S2(=O)=O
Resp: 30

====

inhibition by entry:
Target: 4-aminobutyrate aminotransferase, mitochondrial (Rattus norvegicus) (UniProt P50554)
Test: In vitro inhibition of succinate formation in the synaptosomal Gamma-amino-N-butyrate transaminase assay at 100 uM
Type: functional
// return numeric value only (unit: %, not printed)

Examples from the recorded data:
Req: So what's the measured inhibition for this one? CN1C(=O)Nc2cc(CN)ccc2S1(=O)=O
Resp: 30

Req: What about O=C(O)C1CCCNC1 (centres undefined) ?
Resp: 70

Req: What about CN1C(=O)Nc2cccc(CN)c2S1(=O)=O ?
Resp: 30

Please find the next molecule below.
Req: So what's the measured inhibition for this one? CC1=NS(=O)(=O)c2ccc(CN)cc2N1
Resp: 30

src = ChEMBL document CHEMBL1121999
